# Tested on: Lettuce seeds
# PROTOCOL: Filter paper bioassay on germination and early development of Lettuce seeds
# Assay type: in vivo
# RUN PARAMETERS: 144 h, lowest concentration causing malformation of radicle or shoots; visually assessed six days after beginning; 0 to 1 mmol/l; read-out: MEC, score (Minimal Effective Concentration, activity score) (converted)
REPORTED PROPERTY: minimal effective concentration

Could you tell me which minimal effective concentration is on file for O=C(O)CSc1nc(Br)ccc1Br ? 1 µM

* * *

Quick reference: minimal effective concentration of the listed items.
# Test system: Lettuce seeds
# PROTOCOL: Filter paper bioassay on germination and early development of Lettuce seeds
# Format: in vivo
# RUN PARAMETERS: 144 h, lowest concentration causing malformation of radicle or shoots; visually assessed six days after beginning; 0 to 1 mmol/l; read-out: MEC, score (Minimal Effective Concentration, activity score) (converted)
All answers are understood in µM, so give the number only.

Recorded results for 5 compounds are shown here.
* CCCCOC(=O)CSc1ccc(Br)c(Br)n1 [compound 6700] | 1
* CCCCCCCCOC(=O)CSc1cccc(Br)n1 [compound 7106] | 10
* O=C(O)CCCCSc1ccc(Br)c(Br)n1 [compound 7187] | 1
* CCOC(=O)Cc1ccc(F)c(Br)n1 [compound 7117] | 10
* O=C(O)CS(=O)(=O)c1csc(Cl)n1 [compound 5851] | 1

Could you tell me which minimal effective concentration is on file for COC(=O)Cc1nc(Cl)sc1C#N [compound 7167] ? 10

Could you tell me which minimal effective concentration is on file for O=C(O)CNc1ccc(Br)c(Br)n1 [compound 7122] ? 1

Could you tell me which minimal effective concentration is on file for CCOC(=O)c1c[nH]cc1CC#N [compound 7131] ? 10

Could you tell me which minimal effective concentration is on file for O=C(O)CC#Cc1nc(Cl)sc1Cl [compound 7145] ? 1

Could you tell me which minimal effective concentration is on file for CCOC(=O)CSc1nc(Cl)sc1Cl [compound 7119] ? 10

Could you tell me which minimal effective concentration is on file for O=C(O)CCCCNc1ccc(F)c(Br)n1 [compound 7165] ? 10

* * *

# System: Lettuce seeds
# PROTOCOL: Filter paper bioassay on germination and early development of Lettuce seeds
# Type: in vivo
# RUN PARAMETERS: 144 h, lowest concentration causing malformation of radicle or shoots; visually assessed six days after beginning; 0 to 1 mmol/l; read-out: MEC, score (Minimal Effective Concentration, activity score) (converted)
Counter-ions that a name gives are not always drawn.
REPORTED PROPERTY: minimal effective concentration (µM)
All answers are understood in µM, so give the number only.

Recorded results for 2 molecules are shown here.
- O=C(O)CNc1nc(Br)c(Br)cc1F [compound 7169]: 1
- CCOCCOCCOC(=O)CSc1ccc(Br)c(Br)n1 [compound 7139]: 1

Could you tell me which minimal effective concentration is on file for O=C(O)COc1ccc(F)c(Br)n1 [compound 7157] ? 1

Could you tell me which minimal effective concentration is on file for NCCCCNc1ccc(Br)c(Br)n1 [compound 6709] ? 10

Could you tell me which minimal effective concentration is on file for CCCCOC(=O)C[S+]([O-])c1ccc(Br)c(Br)n1 (stereo not shown) [compound 6703] ? 10

Could you tell me which minimal effective concentration is on file for O=C(O)CNc1c(Cl)csc1Cl [compound 7147, hydrochloride] ? 10

Could you tell me which minimal effective concentration is on file for CCOC(=O)Sc1csc(Cl)n1 [compound 7189] ? 10

Could you tell me which minimal effective concentration is on file for O=C(O)c1csc(Cl)n1 [compound 7194, 2-chloro-1,3-thiazole-4-carboxylic acid] ? 100

Could you tell me which minimal effective concentration is on file for O=C(O)CNc1cccc(Br)n1 [compound 6702] ? 1

Could you tell me which minimal effective concentration is on file for O=C(O)CNc1ccc(F)c(Br)n1 [compound 7148] ? 10

Could you tell me which minimal effective concentration is on file for CCOC(=O)CSc1nc(Cl)cs1 [compound 7112] ? 10
